- assay text: drug combination growth inhibition, ovarian cancer – cell-based, oncology-focused library, rucaparib conditional, profiling panel (AID 1508598)
- condition context: patient-derived ovarian cancer cells, CellTiter-Glo viability, 144 h; at 0.0781 µM; OCI-C5x cells; with rucaparib 10 µM; 100% = cells with rucaparib alone
Activity calls are given as the source filed them.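 How the source made its calls: active means normalized viability below 100% at a tested concentration; inactive means the rest.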
Use one of these outcomes when replying: active, inactive

Prompt line: Short answer needed: outcome of this test for "O=c1c(O)c(-c2ccc(O)c(O)c2)oc2cc(O)cc(O)c12" ?
Response line: inactive

Prompt line: Short answer needed: outcome of this test for "CN(Cc1cnc2nc(N)nc(N)c2n1)c1ccc(C(=O)N[C@@H](CCC(=O)O)C(=O)O)cc1" ?
Response line: active

Prompt line: Short answer needed: outcome of this test for "Cc1nc2ccc(CN(C)c3ccc(C(=O)N[C@@H](CCC(=O)O)C(=O)O)s3)cc2c(=O)[nH]1" ?
Response line: active

Prompt line: Short answer needed: outcome of this test for "NC(=O)NO" ?
Response line: inactive

src = PubChem BioAssay
